experiment: A CellTox Green Cytotoxicity Assay to monitor cytotoxicity in HEK293 cells - 0 hour (AID 1224869); conditions: CellTox Green fluorescence; series mostly up to 76.8 µM; also: % is scaled to controls: 0 for no effect and ±100 for the full control effect; nearly all actives have a fitted effect of over 50% in size
Calls of active or inactive are those of the source. Calls follow the shape of the dose curve; as a rule, active = well fitted activation curve with a large enough effect in the repeat runs; inconclusive = weak or mixed curves; inactive = flat fitted curve, though single readings scatter.

compound	cytotoxicity
CN(C)CCN(C)CCO	inactive
O=C1NC(c2ccccc2)(c2ccccc2)C(=O)N1COP(=O)(O)O	inactive
COc1ccc(CCO)cc1	inactive
Cc1c(N)cccc1Cl	inactive
CC(C)C1OCCN1CCOC(=O)NCCCCCCNC(=O)OCCN1CCOC1C(C)C (stereo not given)	inactive
Cc1cc(C)c(C(=O)O)c(C)c1	inactive
COC(=O)/C=C\C(=O)O	inactive
Cc1ccnc(N)c1	inactive
CCCC(CC)c1ccccc1 (stereo not given)	inactive
COC(=O)c1cc(Cl)cc(Cl)c1	inactive
CC(C)CCOC(=O)c1ccccc1	inactive
CCc1occc(=O)c1O	inactive
O=C(O)CSCC(=O)NC1CCSC1=O (stereo not given)	inactive
N[C@@H](CSCCCO)C(=O)O	-3.9% [at 15.8 µM] (inactive)
C=CCN1C[C@H](C(=O)N(CCCN(C)C)C(=O)NCC)C[C@@H]2c3cccc4[nH]cc(c34)C[C@H]21	inactive
CC(=O)CCC1=C(C)CCCC1(C)C	inactive
Cc1ccccc1C(N)=O	inactive
O=C1CCCCO1	inactive
O=C(O)c1cc2ccccc2nc1C(=O)O	inactive
CC(=O)O[Si](C)(OC(C)=O)OC(C)=O	inactive
O=C(O)CONC(=O)c1ccccc1	inactive
C[Si]1(C)O[Si](C)(C)O[Si](C)(C)O[Si](C)(C)O[Si](C)(C)O1	inactive
CCCCOC(=O)[C@H](C)O	inactive
OC1OCCOC1O (stereo not given)	inactive
CN(C)CCCO[C@@H]1[C@H]2OC(C)(C)O[C@H]2O[C@@H]1C(O)CO (stereo not given in full)	inactive
CC(CO)(CO)CO	inactive
COC(=O)CCCCC(CCSS/C(CCO)=C(\C)N(C=O)Cc1cnc(C)nc1N)SC(C)=O (stereo not given)	inactive
CCN(CC)CCN	inactive
CCCCOCCOC(=O)COc1ccc(Cl)cc1Cl	inactive
CC(C)COC(=O)c1ccccc1	inactive
CC(C)(CO)C(O)C(=O)NCCCO (stereo not given)	inactive
C=C(C)c1cccc(C(C)(C)N=C=O)c1	inactive
CC1OCCC1=O (stereo not given)	inactive
COC(=O)c1ccccc1C(=O)O	inactive
CC1(C)CC(OC(=O)CCCCCCCCC(=O)OC2CC(C)(C)NC(C)(C)C2)CC(C)(C)N1	-1.08% [at 15.8 µM] (inactive)
Cc1cccc(Cl)c1	inactive
COCCc1ccccn1	inactive
OCC1CCC(CO)CC1 (stereo not given)	inactive
CCNC(=O)NCc1cccc(Cl)c1	inactive
CC(C)NCC(O)c1ccc2ccccc2c1 (stereo not given)	inactive

---

biological target: Cytochrome P450 3A4 (Homo sapiens) (UniProt P08684); assay: Cytochrome P450 Family 3 Subfamily A Member 4 (CYP3A4) small molecule antagonists: luciferase reporter qHTS assay (AID 1671201); details: P450-Glo CYP3A4 enzyme, luciferin luminescence, 1 h; series mostly up to 115 µM; also: nearly all actives have a fitted effect of over 50% in size
Sequence (P08684 whole entry, looked up): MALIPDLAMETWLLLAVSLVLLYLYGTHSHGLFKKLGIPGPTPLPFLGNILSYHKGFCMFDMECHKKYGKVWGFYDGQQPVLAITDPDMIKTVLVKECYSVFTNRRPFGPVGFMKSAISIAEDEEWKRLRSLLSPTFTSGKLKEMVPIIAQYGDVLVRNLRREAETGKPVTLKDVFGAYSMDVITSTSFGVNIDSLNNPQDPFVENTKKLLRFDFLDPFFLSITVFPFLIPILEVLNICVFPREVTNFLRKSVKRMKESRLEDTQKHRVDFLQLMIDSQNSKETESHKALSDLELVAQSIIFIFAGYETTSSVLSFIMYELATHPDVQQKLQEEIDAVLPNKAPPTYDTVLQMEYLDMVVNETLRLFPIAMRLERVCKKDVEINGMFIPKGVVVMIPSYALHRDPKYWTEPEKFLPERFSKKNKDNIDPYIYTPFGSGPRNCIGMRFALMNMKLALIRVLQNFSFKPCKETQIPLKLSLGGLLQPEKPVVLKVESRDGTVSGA
Results filed as inconclusive are left out. Active and inactive are the calls of the source. Calls come from the whole dose curve; as a rule, active = well fitted inhibition curve with a large enough effect in the repeat runs; inconclusive = weak or mixed curves; inactive = no such curve, though single readings can be large or run the other way. Where a SMILES comes first, the peptide text is derived from it.
Labels: y = active, n = inactive

compound	target desc	assigned label
C=CCOC(=O)CCCCCC	Cytochrome P450 3A4 (Homo sapiens) (UniProt P08684)	n
CCCc1ccc(O)cc1	Cytochrome P450 3A4 (Homo sapiens) (UniProt P08684)	n
COc1ccc2c(c1)c1c3n2CCN(C)C3=NCC1	Cytochrome P450 3A4 (Homo sapiens) (UniProt P08684)	n
Cc1ccc2c(c1)C(=O)c1ccccc1C2=O	Cytochrome P450 3A4 (Homo sapiens) (UniProt P08684)	y
CCC(=O)Oc1ccc2c(c1)CC[C@@H]1[C@@H]2CC[C@@]2(C)[C@H]1C[C@@H](OC(=O)CC)[C@@H]2OC(=O)CC	Cytochrome P450 3A4 (Homo sapiens) (UniProt P08684)	n
Cc1cc(C)c(C(=O)O)c(C)c1	Cytochrome P450 3A4 (Homo sapiens) (UniProt P08684)	n
Cc1ccc(C)c([N+](=O)[O-])c1	Cytochrome P450 3A4 (Homo sapiens) (UniProt P08684)	n
CC(=O)c1cc(C)oc1C	Cytochrome P450 3A4 (Homo sapiens) (UniProt P08684)	n
O=NN(CCCl)C(=O)NC1CCCCC1	Cytochrome P450 3A4 (Homo sapiens) (UniProt P08684)	n
OC[C@@H](O)C(O)[C@@H](O)CO (stereo partly drawn)	Cytochrome P450 3A4 (Homo sapiens) (UniProt P08684)	n
C=C(C)[C@@H]1CC=C(C)CC1	Cytochrome P450 3A4 (Homo sapiens) (UniProt P08684)	n
COC(=O)c1cc(Cl)cc(Cl)c1	Cytochrome P450 3A4 (Homo sapiens) (UniProt P08684)	n
C/C=C(\C)C(C)=O	Cytochrome P450 3A4 (Homo sapiens) (UniProt P08684)	n
C[C@@H](O)C(=O)O	Cytochrome P450 3A4 (Homo sapiens) (UniProt P08684)	n
Cc1ncc([N+](=O)[O-])n1CC(C)O (stereo not drawn)	Cytochrome P450 3A4 (Homo sapiens) (UniProt P08684)	n
COc1cc(/C=C/C(N)=O)cc(OC)c1OC	Cytochrome P450 3A4 (Homo sapiens) (UniProt P08684)	n
CCOCCOCC	Cytochrome P450 3A4 (Homo sapiens) (UniProt P08684)	n
COc1cc(OC)nc(O[C@H](C(=O)O)C(OC)(c2ccccc2)c2ccccc2)n1	Cytochrome P450 3A4 (Homo sapiens) (UniProt P08684)	n
C=C(C)c1cccc(C(C)(C)N=C=O)c1	Cytochrome P450 3A4 (Homo sapiens) (UniProt P08684)	y
CO[C@@]1(NC(=O)Cc2cccs2)C(=O)N2C(C(=O)O)=C(COC(N)=O)CS[C@@H]21	Cytochrome P450 3A4 (Homo sapiens) (UniProt P08684)	n
C=C(C)[C@@H]1CC=C(C)C(=O)C1	Cytochrome P450 3A4 (Homo sapiens) (UniProt P08684)	n
O=C(NCN1CCOCC1)c1cnccn1	Cytochrome P450 3A4 (Homo sapiens) (UniProt P08684)	n
CCOC(=O)CC1(C)OCC(C)O1 (stereo not drawn)	Cytochrome P450 3A4 (Homo sapiens) (UniProt P08684)	n
COc1ccc(CCO)cc1	Cytochrome P450 3A4 (Homo sapiens) (UniProt P08684)	n
CO[Si](CCCn1c(=O)n(CCC[Si](OC)(OC)OC)c(=O)n(CCC[Si](OC)(OC)OC)c1=O)(OC)OC	Cytochrome P450 3A4 (Homo sapiens) (UniProt P08684)	y
CC(=O)N[C@@H](CO)C(=O)N[C@@H](CC(=O)O)C(=O)N[C@@H](CCCCN)C(=O)N1CCC[C@H]1C(=O)O (Ac-SDKP-OH)	Cytochrome P450 3A4 (Homo sapiens) (UniProt P08684)	n
CCCC(CC)c1ccccc1 (stereo not drawn)	Cytochrome P450 3A4 (Homo sapiens) (UniProt P08684)	n
CC(=O)C(C)O (stereo not drawn)	Cytochrome P450 3A4 (Homo sapiens) (UniProt P08684)	n
